The reported measurements were obtained from patent US8143393B2.

Listed compounds paired with reported pIC50
- System: H460
- experiment: Tumor cell proliferation (H460 proliferation assay)
- Assay type: cell-based
- measurement-parameters: Homo sapiens, NCI-H460, 72 h, Alamar Blue, upper bound of the bin 'greater than 500 nM but less than 4 μM'
pIC50: −log10 of the molar value.

| compound | pIC50 |
| --- | --- |
| Nc1ncnn2c(CN3CCOCC3)cc(-c3ccc(NC(=O)Nc4cccc(C(F)(F)F)c4)cc3)c12 [Example 5] | > 5.40 |
| Nc1ncnn2c(CN3CCOCC3)cc(-c3ccc(NC(=O)Nc4ccc(F)c(C(F)(F)F)c4)cc3)c12 [Example 6] | > 5.40 |
| Nc1ncnn2c(CN3CCOCC3)cc(-c3ccc(NC(=O)Nc4cc(C(F)(F)F)ccn4)cc3)c12 [Example 3] | > 5.40 |
| Nc1ncnn2c(CN3CCOCC3)cc(-c3ccc(NC(=O)Nc4cc(C(F)(F)F)ccn4)c(F)c3)c12 [Example 8] | > 5.40 |
| Nc1ncnn2c(CN3CCOCC3)cc(-c3ccc(NC(=O)Nc4cc(C(F)(F)F)ccc4F)c(F)c3)c12 [Example 1] | > 5.40 |

* * *

- target-or-test-system: FGFR-1 (Homo sapiens, UniProt P11362)
- Construct: GST; made in house
- Sequence (P11362 22-822): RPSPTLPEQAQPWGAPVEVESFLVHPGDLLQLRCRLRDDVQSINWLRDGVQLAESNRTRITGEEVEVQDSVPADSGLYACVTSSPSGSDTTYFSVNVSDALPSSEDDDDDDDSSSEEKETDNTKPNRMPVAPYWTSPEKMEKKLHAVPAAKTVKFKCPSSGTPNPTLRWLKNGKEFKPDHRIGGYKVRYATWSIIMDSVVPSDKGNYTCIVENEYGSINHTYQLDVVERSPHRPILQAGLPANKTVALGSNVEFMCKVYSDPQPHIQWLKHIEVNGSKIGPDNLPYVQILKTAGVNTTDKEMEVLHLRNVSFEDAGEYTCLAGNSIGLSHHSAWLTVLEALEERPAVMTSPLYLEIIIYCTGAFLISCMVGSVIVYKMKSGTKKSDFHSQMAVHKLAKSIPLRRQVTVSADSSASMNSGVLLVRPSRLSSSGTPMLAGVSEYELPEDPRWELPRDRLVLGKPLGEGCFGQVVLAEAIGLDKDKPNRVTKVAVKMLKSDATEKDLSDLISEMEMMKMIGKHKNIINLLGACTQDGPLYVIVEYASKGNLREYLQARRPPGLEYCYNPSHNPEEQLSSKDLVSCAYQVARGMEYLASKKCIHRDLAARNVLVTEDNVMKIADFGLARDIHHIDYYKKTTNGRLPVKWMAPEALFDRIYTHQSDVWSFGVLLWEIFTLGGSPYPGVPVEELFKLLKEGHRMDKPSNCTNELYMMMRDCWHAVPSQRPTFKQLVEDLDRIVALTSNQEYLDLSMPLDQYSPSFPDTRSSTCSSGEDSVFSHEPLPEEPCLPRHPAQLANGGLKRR
- experiment: FGFR-1 TR-FRET biochemical assay
- measurement-parameters: 0.6 uM ATP, 5 nM FGFR1-GST; bounds given in nM
Listing of entries alongside the reported IC50.
quantity-measured: IC50

| smiles-input | value-observed |
| --- | --- |
| CCc1cccc(NC(=O)Nc2ccc(-c3cc(CN4CCOCC4)n4ncnc(N)c34)cc2)c1 | < 10 nM |
| Nc1ncnn2c(CN3CCOCC3)cc(-c3cc(F)c(NC(=O)Nc4cc(C(F)(F)F)ccc4F)c(F)c3)c12 | > 100 nM |
| CC(=O)N1CCC(c2cc(-c3ccc(NC(=O)Nc4cc(C(F)(F)F)ccn4)c(F)c3)c3c(N)ncnn23)CC1 | < 10 nM |
| Nc1ncnn2c(C3CCN(CC(=O)O)CC3)cc(-c3ccc(NC(=O)Nc4cc(C(F)(F)F)ccc4F)c(F)c3)c12 | < 10 nM |

* * *

Entries annotated with measured IC50
- target-or-test-system: FGFR-1 (Homo sapiens)
- Construct: GST; made in house
- experiment: FGFR-1 TR-FRET biochemical assay
- measurement-parameters: 0.6 uM ATP, 5 nM FGFR1-GST; bounds given in nM
quantity-measured: IC50

| compound | quantity-measured | value-observed |
| --- | --- | --- |
| Nc1ncnn2c(CN3CCOCC3)cc(-c3ccc(NC(=O)Nc4cccc(C(F)(F)F)c4F)cc3)c12 [Example 58] | IC50 | 10 to 100 nM |
| CCc1cccc(NC(=O)Nc2ccc(-c3cc(CN4CCS(=O)(=O)CC4)n4ncnc(N)c34)cc2F)c1 [Example 75] | IC50 | < 10 nM |
| Cc1cc(NC(=O)Nc2cc(C(F)(F)F)ccc2Cl)c(F)cc1-c1cc(CN2CCOCC2)n2ncnc(N)c12 [Example 147] | IC50 | > 100 nM |
| Nc1ncnn2c(CN3CCOCC3)cc(-c3ccc(NC(=O)Nc4cccc(C(F)(F)F)c4)c(C(F)(F)F)c3)c12 [Example 269] | IC50 | < 10 nM |
| Nc1ncnn2c(CCCN3CCCOCC3)cc(-c3ccc(NC(=O)Nc4cc(C(F)(F)F)ccc4F)c(F)c3)c12 [Example 193] | IC50 | < 10 nM |
| COc1cc(-c2cc(CN3CCOCC3)n3ncnc(N)c23)ccc1NC(=O)Nc1cccc(OC(F)(F)F)c1 [Example 33] | IC50 | 10 to 100 nM |
| CN1CCN(CCc2cc(-c3ccc(NC(=O)Nc4cc(C(F)(F)F)ccc4F)c(F)c3)c3c(N)ncnn23)CC1 [Example 214] | IC50 | < 10 nM |
| Nc1ncnn2c(CCN3CCCC3)cc(-c3ccc(NC(=O)Nc4cc(C(F)(F)F)ccc4F)c(F)c3)c12 [Example 216] | IC50 | 10 to 100 nM |
| CC(C)(C)c1cc(NC(=O)Nc2ccc(-c3cc(CN4CCOCC4)n4ncnc(N)c34)cc2)on1 [Example 2] | IC50 | < 10 nM |
| Nc1ncnn2c(CCCN3CCOCC3)cc(-c3ccc(NC(=O)Nc4cc(C(F)(F)F)ccn4)c(F)c3)c12 [Example 191] | IC50 | < 10 nM |
| Nc1ncnn2c(CN3CCN(S(=O)(=O)CC(F)(F)F)CC3)cc(-c3ccc(NC(=O)Nc4cc(C(F)(F)F)ccc4F)cc3)c12 [Example 86] | IC50 | 10 to 100 nM |
| Nc1ncnn2c(CN3CCOCC3)cc(-c3ccc(NC(=O)Nc4cccc(C(F)(F)F)c4)c(F)c3)c12 [Example 10] | IC50 | < 10 nM |
| Nc1ncnn2c(C3CCN(C(=O)CN4CCOCC4)CC3)cc(-c3ccc(NC(=O)Nc4cc(C(F)(F)F)ccc4F)c(F)c3)c12 [Example 115] | IC50 | 10 to 100 nM |
| Nc1ncnn2c(CN3CCOCC3)cc(-c3ccc(NC(=O)Nc4ccc(F)c(C(F)(F)F)c4)nc3)c12 [Example 18] | IC50 | < 10 nM |
| COc1cc(-c2cc(CN3CCOCC3)n3ncnc(N)c23)ccc1NC(=O)Nc1cc(C(C)(C)C)no1 [Example 30] | IC50 | 10 to 100 nM |
| Cc1cc(-c2cc(CN3CCNC(=O)C3)n3ncnc(N)c23)ccc1NC(=O)Nc1cc(C(F)(F)F)ccc1F [Example 165] | IC50 | < 10 nM |
| CN1CCN(CCCc2cc(-c3ccc(NC(=O)Nc4cc(C(F)(F)F)ccc4F)c(F)c3)c3c(N)ncnn23)CC1 [Example 187] | IC50 | < 10 nM |
| Nc1ncnn2c(C(=O)NCC3CNCCO3)cc(-c3ccc(NC(=O)Nc4cccc(C(F)(F)F)c4)c(F)c3)c12 (stereo not shown) [Example 293] | IC50 | 10 to 100 nM |
| CC(C)(C)OC(=O)N1CCN(Cc2cc(-c3ccc(NC(=O)Nc4cc(C(F)(F)F)ccc4F)c(F)c3)c3c(N)ncnn23)CC1 [Example 82] | IC50 | 10 to 100 nM |
| Nc1ncnn2c(CC3CNCCO3)cc(-c3ccc(NC(=O)Nc4cc(C(F)(F)F)ccc4F)c(F)c3)c12 (stereo not shown) [Example 276] | IC50 | 10 to 100 nM |
| Cc1cc(-c2cc(CN3CCOCC3)n3ncnc(N)c23)ccc1NC(=O)Nc1cc(C(F)(F)F)ccc1F [Example 25] | IC50 | < 10 nM |
| Nc1ncnn2c(CCCN3CCCC3)cc(-c3ccc(NC(=O)Nc4cc(C(F)(F)F)ccc4F)c(F)c3)c12 [Example 186] | IC50 | < 10 nM |
| Nc1ncnn2c(CN3CCOCC3)cc(-c3ccc(NC(=O)Nc4cc(C(F)(F)F)ccc4F)cc3F)c12 [Example 16] | IC50 | < 10 nM |
| Nc1ncnn2c(CN3CCOCC3)cc(-c3ccc(NC(=O)Nc4cc(C(F)(F)F)ccc4F)c(F)c3)c12 [Example 1] | IC50 | < 10 nM |
| Nc1ncnn2c(C(=O)CN3CCOCC3)cc(-c3ccc(NC(=O)Nc4cc(C(F)(F)F)ccc4F)cc3)c12 [Example 103] | IC50 | 10 to 100 nM |
| Nc1ncnn2c(CN3CCNC(=O)C3)cc(-c3ccc(NC(=O)Nc4cc(C(F)(F)F)ccn4)c(F)c3)c12 [Example 163] | IC50 | < 10 nM |
| Nc1ncnn2c(CN3CCOCC3)cc(-c3ccc(NC(=O)Nc4cccc(C(F)(F)F)c4F)nc3)c12 [Example 21] | IC50 | 10 to 100 nM |
| Nc1ncnn2c(C3CCN(CCO)CC3)cc(-c3ccc(NC(=O)Nc4cc(C(F)(F)F)ccc4F)c(F)c3)c12 [Example 116] | IC50 | < 10 nM |

* * *

- target-or-test-system: FGFR-1 (Homo sapiens)
- Construct: GST; made in house
- experiment: FGFR-1 TR-FRET biochemical assay
- measurement-parameters: 0.6 uM ATP, 5 nM FGFR1-GST; bounds given in nM
quantity-measured: IC50

| smiles-input | quantity-measured | value-observed |
| --- | --- | --- |
| Nc1ncnn2c(CN3CCOCC3)cc(-c3ccc(NC(=O)Nc4ccc(Cl)cn4)cc3)c12 | IC50 | > 100 nM |
| Nc1ncnn2c(CCCN3CCOCC3)cc(-c3ccc(NC(=O)Nc4cc(C(F)(F)F)ccc4F)c(F)c3)c12 | IC50 | < 10 nM |
| Nc1ncnn2c(C(=O)COCCN3CCOCC3)cc(-c3ccc(NC(=O)Nc4cc(C(F)(F)F)ccc4F)c(F)c3)c12 | IC50 | > 100 nM |
| Nc1ncnn2c(CN3CCOCC3)cc(-c3ccc(NC(=O)Nc4cc(C(F)(F)F)ccc4Cl)c(F)c3)c12 | IC50 | < 10 nM |
